# TEST_TARGET: hNurr1_RXRγFL (NURR-1/RXRγ heterodimer) (Homo sapiens, UniProt P48443)
# Sequence (P48443 whole entry, the tested form may be a part): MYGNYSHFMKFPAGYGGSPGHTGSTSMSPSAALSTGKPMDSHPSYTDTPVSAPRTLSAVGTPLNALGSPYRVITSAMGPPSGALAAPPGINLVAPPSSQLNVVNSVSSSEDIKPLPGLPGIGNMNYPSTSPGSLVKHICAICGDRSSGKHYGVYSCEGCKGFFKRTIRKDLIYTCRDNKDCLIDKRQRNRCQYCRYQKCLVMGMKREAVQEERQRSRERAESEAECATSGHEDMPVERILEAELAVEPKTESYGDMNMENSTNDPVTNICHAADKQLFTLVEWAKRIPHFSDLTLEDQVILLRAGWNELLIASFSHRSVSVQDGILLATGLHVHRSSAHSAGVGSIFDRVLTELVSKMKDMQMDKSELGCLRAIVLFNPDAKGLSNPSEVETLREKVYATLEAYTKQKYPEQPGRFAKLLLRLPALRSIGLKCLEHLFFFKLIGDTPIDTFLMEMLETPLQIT
# Sequence (P43354 whole entry partner, the tested form may be a part): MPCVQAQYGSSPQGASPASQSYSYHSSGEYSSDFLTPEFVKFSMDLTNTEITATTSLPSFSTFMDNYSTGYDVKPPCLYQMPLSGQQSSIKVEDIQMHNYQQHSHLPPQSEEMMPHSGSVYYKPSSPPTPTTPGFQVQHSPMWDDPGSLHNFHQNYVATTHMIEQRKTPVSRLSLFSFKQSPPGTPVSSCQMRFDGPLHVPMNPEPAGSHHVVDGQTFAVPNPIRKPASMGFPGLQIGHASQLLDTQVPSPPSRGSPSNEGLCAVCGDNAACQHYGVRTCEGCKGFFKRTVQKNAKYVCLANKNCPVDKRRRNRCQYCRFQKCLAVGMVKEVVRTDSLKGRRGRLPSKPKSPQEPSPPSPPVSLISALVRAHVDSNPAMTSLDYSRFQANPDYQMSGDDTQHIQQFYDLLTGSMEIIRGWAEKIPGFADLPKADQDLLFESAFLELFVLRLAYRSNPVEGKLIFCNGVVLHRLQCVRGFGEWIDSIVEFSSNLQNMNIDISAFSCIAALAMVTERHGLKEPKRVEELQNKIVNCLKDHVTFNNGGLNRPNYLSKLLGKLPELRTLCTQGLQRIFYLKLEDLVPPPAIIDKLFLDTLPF
# ASSAY_REMARKS: Transactivation test (luciferase reporter) in Cos-7 cells co-transfected with NURR-1-Gal4 and RXRγ
# Format: cell-based
# EXPERIMENTAL_CONDITIONS: percentage efficacy relative to the reference XCT0135908 at 2×10^−5 M (=100%), read-out: hNurr1_RXRγFL Eff (%)
READOUT: Emax (%)

- CPD_SMILES: "CC(C)(C)c1cccc(S(=O)(=O)n2c(Cc3nc(C(=O)O)cs3)cc3nc(C(F)(F)F)ccc32)c1"
  VAL: 72
- CPD_SMILES: "CC(C)(C)c1cccc(S(=O)(=O)n2c(Cc3cccc(C(=O)O)c3)cc3cc(C(F)(F)F)ncc32)c1"
  VAL: 86
- CPD_SMILES: "CN1CCOc2ccc(S(=O)(=O)n3c(Cc4ccc(C(=O)O)cc4)cc4cc(C(F)(F)F)cnc43)cc21"
  VAL: 69
- CPD_SMILES: "CC(C)(C)c1cccc(S(=O)(=O)n2c(Cc3ccc(C(=O)O)cc3)cc3nc(C(F)(F)F)ccc32)c1"
  VAL: 68
- CPD_SMILES: "CC(C)c1ccc(S(=O)(=O)n2c(Cc3ccc(C(=O)O)cc3)cc3cc(Cl)cnc32)cc1"
  VAL: 48

* * *

# TEST_TARGET: hNurr1_RXRαFL (NURR-1/RXRα heterodimer) (Homo sapiens)
# Sequence (P19793 whole entry, the tested form may be a part): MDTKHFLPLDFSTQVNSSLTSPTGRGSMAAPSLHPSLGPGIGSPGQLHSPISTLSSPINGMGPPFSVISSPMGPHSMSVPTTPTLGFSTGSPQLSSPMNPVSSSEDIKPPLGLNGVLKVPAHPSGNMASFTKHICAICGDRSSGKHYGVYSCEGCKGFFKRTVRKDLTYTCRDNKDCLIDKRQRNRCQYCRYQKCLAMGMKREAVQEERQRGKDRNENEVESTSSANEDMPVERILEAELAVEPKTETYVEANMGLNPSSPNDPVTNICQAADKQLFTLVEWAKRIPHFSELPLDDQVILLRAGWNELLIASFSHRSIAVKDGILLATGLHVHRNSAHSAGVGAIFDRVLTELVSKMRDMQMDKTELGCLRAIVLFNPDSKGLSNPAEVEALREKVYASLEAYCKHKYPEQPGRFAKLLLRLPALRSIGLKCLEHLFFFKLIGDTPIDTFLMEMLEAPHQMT
# Sequence (P43354 whole entry, further chain, the tested form may be a part): as the sequence (P43354 whole entry partner, the tested form may be a part) above
# ASSAY_REMARKS: Transactivation test (luciferase reporter) in Cos-7 cells co-transfected with NURR-1-Gal4 and RXRα
# Format: cell-based
# EXPERIMENTAL_CONDITIONS: percentage efficacy relative to the reference XCT0135908 at 2×10^−5 M (=100%), read-out: hNurr1_RXRαFL Eff (%)
READOUT: Emax (%)

- COMPOUND: "CC(C)(C)c1cccc(S(=O)(=O)n2c(Cc3cncc(C(=O)O)c3)cc3cc(C(F)(F)F)ncc32)c1"
  VAL: 94
- COMPOUND: "CC(C)(C)c1cccc(S(=O)(=O)n2c(C(O)c3ccc(C(=O)O)s3)cc3nc(C(F)(F)F)ccc32)c1 (centres unmarked)"
  VAL: 84
- COMPOUND: "CN1CCOc2ccc(S(=O)(=O)n3c(Cc4ccc(C(=O)O)cc4)cc4cc(C(F)(F)F)cnc43)cc21"
  VAL: 62

[1] CC(C)c1ccc(S(=O)(=O)n2c(Cc3ccc(C(=O)O)cc3)cc3nc(C(F)(F)F)ccc32)cc1
[2] CC(C)(C)c1cccc(S(=O)(=O)n2c(Cc3cc(C(=O)O)co3)cc3cc(C(F)(F)F)ncc32)c1
[3] CC(C)(C)c1cccc(S(=O)(=O)n2c(C(=O)c3ccc(C(=O)O)s3)cc3nc(C(F)(F)F)ccc32)c1
Order the records so the highest Emax appears first and the lowest last. Labels, requested order.
2, 1, 3

[1] Cc1c(Cc2ccc(C(=O)O)cc2)n(S(=O)(=O)c2cccc(C(C)(C)C)c2)c2ccc(C(F)(F)F)nc12
[2] CC(C)(C)c1cccc(S(=O)(=O)n2c(Cc3ccc(F)c(C(=O)O)c3)cc3cc(C(F)(F)F)ncc32)c1
Looking only at measured Emax, which entry is lower, 1 or 2 ? Please respond with the label that marks your chosen entry.
1

[1] CC(C)c1ccc(S(=O)(=O)n2c(Cc3ccc(C(=O)O)s3)cc3cc(Cl)cnc32)cc1
[2] CC(C)(C)c1cccc(S(=O)(=O)n2c(Cc3csc(C(=O)O)c3)cc3cc(C(F)(F)F)ncc32)c1
API: POST /compare with 1 and 2 ; response names the item with higher Emax. Please respond with the label that marks your chosen entry.
2

meta.source: patent US8546385B2
